- System: HIV-1 IIIB
- Assay Notes: Neutralization assay (plaque-forming units/syncytia) in U87 cells expressing CD4 and co-receptor
- Type: cell-based
- Experimental Context: Glycosylated Sp. Exchanger & 1:10 dilution human serum, 0.1 ug/ml; 0.3 equals 30% inhibition
- Description: Once it had been determined that the glycosylated specificity exchangers appreciably bound gp120 and human antibody, the antiviral activity of the glycosylated specificity exchangers was evaluated using a neutralization assay that is recognized in the art to reasonably predict the therapeutic efficacy of an HIV vaccine. […] Neutralization was then determined by the ability of human serum and glycosylated specificity exchanger to reduce the number of plaque-forming units (PFU) relative to controls. […]
Ends that are not written are not given here.
Documented neutralization of the virus across a set of substances
Write no unit; give the number alone.

A selection of reference data follows.
Substance	Measured Target	neutralization of the virus
6 (KILGNQGSFLTKGPS; Homo sapien) [compound 6]	HIV-1 IIIB	0.50
8 (TKGPSKLNDRADSRR; Homo sapien) [compound 8]	HIV-1 IIIB	0.778
QGSFLTKGPSKLNDR ({Gal‑α1‑3Gal‑β glyco‑aspartic acid}-QGSFLTKGPSKLNDR) [Seq. Id. No. 7, CD4 receptor peptide with Gal-α1-3Gal-β glyco-aspartic acid linked to its N-terminal end]	HIV-1 IIIB	0.48

[Q] Write down the reported neutralization of the virus (system: HIV-1 IIIB) of 7 (QGSFLTKGPSKLNDR; Homo sapien) [compound 7]
[A] 0.439

[Q] Write down the reported neutralization of the virus (system: HIV-1 IIIB) of 9 (KLNDRADSRRSLWDQ; Homo sapien) [compound 9]
[A] 0.76

* * *

- Test system: HIV-1 IIIB
- Assay Notes: Neutralization assay (plaque-forming units/syncytia) in U87 cells expressing CD4 and co-receptor
- Assay type: cell-based
- Experimental Context: Glycosylated Sp. Exchanger & 1:20 dilution human serum, 1 ug/ml; 0.3 equals 30% inhibition
Ends that are not written are not given here.
Quantity: neutralization of the virus
Write no unit; give the number alone.

A selection of reference data follows.
Substance	Readout Number
QGSFLTKGPSKLNDR ({Gal‑α1‑3Gal‑β glyco‑aspartic acid}-QGSFLTKGPSKLNDR) [Seq. Id. No. 7, CD4 receptor peptide with Gal-α1-3Gal-β glyco-aspartic acid linked to its N-terminal end]	0.47
8 (TKGPSKLNDRADSRR; Homo sapien) [compound 8]	0.667
TKGPSKLNDRADSRR ({Gal‑α1‑3Gal‑β glyco‑aspartic acid}-TKGPSKLNDRADSRR) [Seq. Id. No. 8, CD4 receptor peptide with Gal-α1-3Gal-β glyco-aspartic acid linked to its N-terminal end]	0.32

We next turn to a different substance, shown below.
[Q] Write down the reported neutralization of the virus (system: HIV-1 IIIB) of 9 (KLNDRADSRRSLWDQ; Homo sapien) [compound 9]
[A] 0.75
